# Assay target: T1, TDP-221 peptide (human)
# T1 construct: 8-mer of human TDP-43; same ELISA method as for the biotinylated 15-mers
# T1 peptide: FIPKPFRA
# Assay explanation: indirect ELISA, 8-mer peptide library

{"Binder": "ACI-7062-412A7-Ab1 (antibody, IgG2b, V domains shown, also called 412A7B7; clone 9) VH: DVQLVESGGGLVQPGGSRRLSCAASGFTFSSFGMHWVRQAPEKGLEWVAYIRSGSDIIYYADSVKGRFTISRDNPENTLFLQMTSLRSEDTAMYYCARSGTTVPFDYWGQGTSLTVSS VL: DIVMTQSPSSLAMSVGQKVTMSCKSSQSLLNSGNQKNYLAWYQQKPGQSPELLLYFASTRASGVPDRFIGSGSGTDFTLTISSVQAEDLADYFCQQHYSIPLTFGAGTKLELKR", "binding result": "no binding"}
{"Binder": "ACI-7062-406E3-Ab1 (antibody, IgG2a, V domains shown, also called 406E3D5; clone 5) VH: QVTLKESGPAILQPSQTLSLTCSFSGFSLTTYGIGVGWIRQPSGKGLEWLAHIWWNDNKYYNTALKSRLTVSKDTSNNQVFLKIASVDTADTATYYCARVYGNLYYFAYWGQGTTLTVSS VL: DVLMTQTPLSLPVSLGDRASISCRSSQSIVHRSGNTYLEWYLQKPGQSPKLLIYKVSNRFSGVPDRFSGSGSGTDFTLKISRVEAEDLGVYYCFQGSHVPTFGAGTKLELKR", "binding result": "no binding"}
{"Binder": "ACI-7062-416A11-Ab1 (antibody, IgG2a, V domains shown, also called 416A11B3; clone 18) VH: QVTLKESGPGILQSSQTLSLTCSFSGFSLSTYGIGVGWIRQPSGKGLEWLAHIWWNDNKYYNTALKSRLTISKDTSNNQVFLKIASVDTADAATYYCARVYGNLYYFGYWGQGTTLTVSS VL: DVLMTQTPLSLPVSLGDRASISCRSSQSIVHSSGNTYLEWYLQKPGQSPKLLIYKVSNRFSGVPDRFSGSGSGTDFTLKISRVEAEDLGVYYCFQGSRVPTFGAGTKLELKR", "binding result": "no binding"}

From: patent US20220025023A1
